# testTarget: T1, human transferrin receptor 1 (human, UniProt P02786 89-760, limits assumed)
# T1 construct: also called hTfR1; huTfR1
# T1 sequence (P02786 89-760 limits assumed): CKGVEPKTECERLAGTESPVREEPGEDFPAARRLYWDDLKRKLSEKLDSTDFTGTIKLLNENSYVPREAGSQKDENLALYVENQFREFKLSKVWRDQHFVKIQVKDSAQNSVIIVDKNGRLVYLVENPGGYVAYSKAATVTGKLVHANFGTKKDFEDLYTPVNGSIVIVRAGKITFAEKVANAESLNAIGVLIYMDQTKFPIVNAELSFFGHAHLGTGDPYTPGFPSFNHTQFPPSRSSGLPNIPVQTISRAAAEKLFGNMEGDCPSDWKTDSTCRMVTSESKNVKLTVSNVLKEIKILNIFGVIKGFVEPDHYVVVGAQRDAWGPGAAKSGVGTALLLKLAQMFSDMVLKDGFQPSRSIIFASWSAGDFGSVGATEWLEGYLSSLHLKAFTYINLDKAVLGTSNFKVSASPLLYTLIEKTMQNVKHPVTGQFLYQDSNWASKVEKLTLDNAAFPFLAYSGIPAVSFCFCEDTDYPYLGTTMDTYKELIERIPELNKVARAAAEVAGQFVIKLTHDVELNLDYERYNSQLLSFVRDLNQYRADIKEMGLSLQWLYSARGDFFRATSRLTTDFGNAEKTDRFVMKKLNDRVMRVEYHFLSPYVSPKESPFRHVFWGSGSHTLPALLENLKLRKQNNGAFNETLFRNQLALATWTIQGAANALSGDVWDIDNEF
# procedureText: Carterra LSA SPR array, IgG captured on anti-IgG lawn, hTfR1 as analyte, 25 C, 1:1 Langmuir fit
Assignment: determine reported pKd for the given binders.
Numbers only, as −log10 of the molar value.

Example cases with answers are listed next.
8-D15 (antibody, V domains shown, Tested as a mouse monoclonal IgG) VH: QVQLKESGPGLVAPSQSLSITCTVSGFSLTSYAITWVRQSPGKGLEWLGLIWTGGGTNYNSALKSRLSISKDNSKSQVFLKMNSLQTDDTARYYCARIYDGYYRYFDVWGTGTTVTVSS VL: RIVLTQTPKFLLVSAGDRVTMTCKASQSVSNDVAWYQQKPGQSPKLLIYYASNRYTGVPDRFTGSGYGTDFTFTISTVQAEDLAVYFCQQDYSSPWTFGGGTKLEIK	8.09
2-H19 (antibody, V domains shown, Tested as a mouse monoclonal IgG) VH: EVQLQQSGAELVRSGASVKLSCTASGFNIKDYYMHWVKQRPEQGLEWIGWIDPESGDTEYAPKFQGRATMTADTSSNTAYMQLSSLTSEDTAVYYCYGHDYRVDCWGQGTSVTVSS VL: DVVMTQTPLSLPVSLGDQASISCRSSQSLVHSNGNTYLHWYLQKPGQSPKLLIYKVSNRFSGVPDRFSGSGSGTDFTLKISRVEAEDLGVYFCSQSTHIPWTFGGGTKLEIK	8.69

Entry 4-C5 (antibody, V domains shown, Tested as a mouse monoclonal IgG; also called 4-C05) VH: QVQLQQSGAELMKPGASVKISCKATGYTFSNYWIEWVKQRPGHGLEWIGEILPGSGSTNYNENFKGKATFTADTSSNTAYMQLSSLTSEDSAVYYCARRGAYGNFHYWGQGTTLTVSS VL: EIVLTQSPALMAASPGEKVTITCSVSSSISSSNLHWYQQKSETSPKPWIYGTSNLASGVPVRFSGSGSGTSYSLTISSMEAEDAATYYCQQWRSYPYTFGGGTKLEIK , pKd reported as 8.79
